- TARGET_OF_ASSAY: CYP2C8 (Homo sapiens)
- Construct: Pooled human microsomes and selective CYP probe substrates were used; from tissue; host or cells: pooled human liver microsomes
- Sequence (P10632 whole entry): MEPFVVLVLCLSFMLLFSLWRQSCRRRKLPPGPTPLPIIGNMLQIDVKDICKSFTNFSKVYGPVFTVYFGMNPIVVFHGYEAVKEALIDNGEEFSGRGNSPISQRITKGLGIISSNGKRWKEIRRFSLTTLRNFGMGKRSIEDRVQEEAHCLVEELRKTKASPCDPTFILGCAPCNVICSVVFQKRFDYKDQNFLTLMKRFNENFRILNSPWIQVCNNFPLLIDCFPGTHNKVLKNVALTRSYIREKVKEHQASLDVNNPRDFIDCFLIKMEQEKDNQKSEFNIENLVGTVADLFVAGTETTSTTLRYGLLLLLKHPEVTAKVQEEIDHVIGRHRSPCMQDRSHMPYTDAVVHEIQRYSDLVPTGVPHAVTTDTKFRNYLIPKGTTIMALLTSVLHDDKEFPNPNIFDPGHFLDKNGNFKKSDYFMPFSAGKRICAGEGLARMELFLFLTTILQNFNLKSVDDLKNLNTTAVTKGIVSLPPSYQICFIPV
- ASSAY_SUMMARY: Time-dependent inhibition of CYP2C8 in human liver microsomes
- Assay type: in vitro ADME
- TEST_PARAMETERS: CYP2C8, 50 μM, fold change
OBSERVED_PROPERTY: (% Activity NADPH T0)/(% Activity NADPH T30)

Consider the following illustrative entries.
SMILES_TEXT: Cc1cc(CN2C(=O)CN([C@H]3CC[C@H](C)CC3)C(=O)C23CN(C(N)=O)C3)ccc1F
TARGET_OF_ASSAY: CYP2C8 (Homo sapiens)
REPORTED_VALUE: 1.1
//
SMILES_TEXT: C[C@H]1CC[C@H](N2CC(=O)N(Cc3ccc(Cl)cc3)C3(CN(C(N)=O)C3)C2=O)CC1
TARGET_OF_ASSAY: CYP2C8 (Homo sapiens)
REPORTED_VALUE: 1.3
//
SMILES_TEXT: CC(C)N1CC(=O)N(Cc2ccc(C(F)(F)F)cc2)C2(CN(c3cccnn3)C2)C1=O
TARGET_OF_ASSAY: CYP2C8 (Homo sapiens)
REPORTED_VALUE: 1.0
//
SMILES_TEXT: C[C@H]1CC[C@H](N2CC(=O)N(Cc3ccc(F)c(F)c3)C3(CN(C=O)C3)C2=O)CC1
TARGET_OF_ASSAY: CYP2C8 (Homo sapiens)
REPORTED_VALUE: 1.2
//
SMILES_TEXT: CC(C)N1CC(=O)N(Cc2ccc(Cl)c(F)c2)C2(CN(c3cccnn3)C2)C1=O
TARGET_OF_ASSAY: CYP2C8 (Homo sapiens)
REPORTED_VALUE: 1.0

P. C[C@H]1CC[C@H](N2CC(=O)N(Cc3ccc(F)c(Cl)c3)C3(CN(C(N)=O)C3)C2=O)CC1
Q. C[C@H]1CC[C@H](N2CC(=O)N(Cc3ccc(F)c(F)c3)C3(CN(C(N)=O)C3)C2=O)CC1
Please indicate which entry, P or Q , has the lower recorded (% Activity NADPH T0)/(% Activity NADPH T30) value. Let me know the label of the one you choose.
P
(P: 1.1, Q: 2.0)
